# experiment description: physchem
# condition info: n-butyl acetate, 20 °C, organic solvent or mixture, thermodynamic from solid
measurement name: solubility at 6 h (mg/mL)
Expressed in mg/mL, but write only the number.

## Input In one line, give reported solubility at 6 h of the entry `CC(C)(C#N)N=NC(C)(C)C#N` .
## Output 59

====

Can you tell me solubility at 1 h for the items I'm about to list?
# experiment description: physchem
# condition info: water, 20 °C, thermodynamic from solid
Please state the figure in µg/mL; there is no need to write the unit.

## Input Report solubility at 1 h, nothing else, for this molecule: CC(=O)OCC(C)C [Isobutyl acetate]
## Output 7000

## Input Tell me measured solubility at 1 h for CCCCCC(C)=O [Methyl pentyl ketone] please.
## Output 5000

## Input Identify measured solubility at 1 h associated with COC1CCCC1 [Methoxycyclopentane]
## Output 12500

## Input Using known records, supply solubility at 1 h for CC(=O)CC(C)C [Methyl isobutyl ketone]
## Output 20000

====

# experiment description: Measurement of the solubility of AZDN in the organic binder
# condition info: methoxycyclopentane (CPME), 20 °C, organic solvent or mixture, thermodynamic from solid
measurement name: solubility at 6 h
Lab note: write values as number then unit, every time.

## Input Item `CC(C)(C#N)N=NC(C)(C)C#N` : provide solubility at 6 h
## Output 30.5 mg/mL

====

# experiment description: Measurement of the solubility of AZDN in the organic binder
# condition info: toluene, 20 °C, organic solvent or mixture, thermodynamic from solid
measurement name: solubility at 6 h (mg/mL)
Report the value in mg/mL with no unit label.

## Input Give recorded solubility at 6 h. `CC(C)(C#N)N=NC(C)(C)C#N`
## Output 60

====

# experiment description: Measurement of the solubility of AZDN in the organic binder
# condition info: methyl pentyl ketone, 20 °C, organic solvent or mixture, thermodynamic from solid
measurement name: solubility at 6 h (mg/mL)
Quick reminder: number only, in mg/mL, skip the unit.

## Input Hello, please tell me recorded solubility at 6 h for this one: `CC(C)(C#N)N=NC(C)(C)C#N`
## Output 45
